Values were extracted from ChEMBL document CHEMBL6134844.

TEST_NAME: Toxicity in CF1 mouse infected with asexual blood-stage (ABS) Plasmodium yoelii MRA-428 assessed as hunching at 0.3 to 30 mg/kg, po treated 24 hrs post infection measured after 4 days
Type: organism-based
CONDITION_DETAILS: in vivo, 96 h, dose 0.3-30 mg/kg, time 4 day
TEST_READOUT: Activity

Consider the following illustrative entries.
Q: Quick one: give measured Activity for CN(C)CCOc1ccc2c(=O)c3c([nH]c2c1)CCCC3
Ans: Non-toxic

Q: Quick one: give measured Activity for CCCN(CCC)CCOc1ccc2c(=O)c3c([nH]c2c1)CCCC3
Ans: Non-toxic

Q: Quick one: give measured Activity for O=c1c2c([nH]c3ccc(F)c(Oc4ccc(OC(F)(F)F)cc4)c13)CCCC2
Ans: Non-toxic

Q: Quick one: give measured Activity for O=c1c2c([nH]c3cc(Oc4ccc(OC(F)(F)F)cc4)c(F)cc13)CCCC2
Ans: Non-toxic

Q: Quick one: give measured Activity for O=c1c2c([nH]c3cc(OC(F)(F)F)ccc13)CCCC2
Ans: Non-toxic

For every record below, what is its Activity?
1. CCN(CC)CCCOc1ccc2c(=O)c3c([nH]c2c1)CCCC3
2. CCCN(CCC)CCCOc1ccc2c(=O)c3c([nH]c2c1)CCCC3
3. O=c1c2c([nH]c3cc(OCc4ccc(OC(F)(F)F)cc4)ccc13)CCCC2
4. O=c1c2c([nH]c3cc(Nc4ccc(OC(F)(F)F)cc4)ccc13)CCCC2

Ans:
["Non-toxic", "Non-toxic", "Non-toxic", "Non-toxic"]

For every record below, what is its Activity?
1. O=c1c2c([nH]c3cc(Oc4ccc(OC(F)(F)F)cc4)ccc13)CCCC2
2. CCCCN(CCCC)CCCOc1ccc2c(=O)c3c([nH]c2c1)CCCC3
3. CCCCCCOc1ccc2c(=O)c3c([nH]c2c1)CCCC3
4. CCN(CC)CCOc1ccc2c(=O)c3c([nH]c2c1)CCCC3
5. O=c1c2c([nH]c3cc(Oc4cccc(OC(F)(F)F)c4)ccc13)CCCC2

Ans:
1: Non-toxic; 2: Non-toxic; 3: Non-toxic; 4: Non-toxic; 5: Non-toxic

====

Test system: Hepatocyte
TEST_NAME: Cytotoxicity against Macaca mulatta hepatocytes assessed as cell viability measured after 48 hrs by MTT assay
Type: toxicity, cell-based
CONDITION_DETAILS: rhesus monkey, 48 h
TEST_READOUT: CC50 (µM)
Give bare numbers, in µM.

Q: Quick one: give measured CC50 for O=c1c2ccc(OCc3cccc(OC(F)(F)F)c3)cc2[nH]c2cc(F)cc(Cl)c12
Ans: 5.93

Q: Quick one: give measured CC50 for O=c1c2ccc(OCc3ccc(OC(F)(F)F)cc3)cc2[nH]c2cc(Cl)cc(F)c12
Ans: 0.83

Q: Quick one: give measured CC50 for O=c1c2ccc(Oc3ccc(OC(F)(F)F)cc3)cc2[nH]c2ccc(F)c(Cl)c12
Ans: 8.87

For every record below, what is its CC50?
1. CO[C@@H]1[C@@H](OC)[C@H](C)[C@@](O)(CC(=O)O)O[C@H]1[C@H](C)[C@H]1O[C@@]2(CC[C@@](C)([C@H]3CC[C@@](C)([C@@H]4O[C@@H]([C@H]5O[C@](C)(O)[C@H](C)C[C@@H]5C)C[C@@H]4O[C@@H]4C[C@H](OC)[C@@H](OC)[C@H](C)O4)O3)O2)C[C@H](O)[C@H]1C [MADURAMICIN ACID]
2. O=c1c2c([nH]c3cc(Oc4cccc(OC(F)(F)F)c4)ccc13)CCCC2
3. O=c1c2c([nH]c3cc(Nc4ccc(OC(F)(F)F)cc4)ccc13)CCCC2
4. O=c1c2ccc(OCc3cccc(OC(F)(F)F)c3)cc2[nH]c2cc(Cl)cc(F)c12
5. O=c1c2ccc(Oc3ccccc3OC(F)(F)F)cc2[nH]c2cc(Cl)cc(F)c12

Ans:
2.36
10.1
1.81
3.31
9.21

====

TEST_NAME: Tmax in male ICR-CD1 mouse liver at 40 mg/kg, po
Format: ADME, organism-based
What Tmax was measured for each of the following?
One number for each entry, in h.

Q: Quick one: give measured Tmax for O=c1c2c([nH]c3cc(Oc4ccc(OC(F)(F)F)cc4)c(F)cc13)CCCC2
Ans: 0.5

Now turn to the next compound.
Q: Quick one: give measured Tmax for O=c1c2c([nH]c3cc(Oc4ccc(OC(F)(F)F)cc4)ccc13)CCCC2
Ans: 4

====

CONDITION_DETAILS: mouse, microsomes, 1 h
What CLH was measured for each of the following?
One number for each entry, in µL/min/mg.

For every record below, what is its CLH?
1. O=c1c2ccc(OC3CCNCC3)cc2[nH]c2cc(F)cc(Cl)c12
2. O=c1c2ccc(OCc3cccc(C(F)(F)F)c3)cc2[nH]c2ccc(Cl)c(F)c12
3. CCCN(CCC)CCOc1ccc2c(=O)c3c([nH]c2c1)CCCC3

Ans:
72.1
15.6
492

====

TEST_NAME: Selectivity index, ratio of CC50 for Macaca mulatta hepatocytes to IC50 for antiplasmodial activity against hypnozoite Plasmodium cynomolgi B strain infected in Macaca mulatta hepatocytes incubated with sporozoite containing salivary gland homogenate obtained from dissected Anopheles dirus mosquitoes (infected with Plasmodium cynomolgi B strain) treatment started on day 4 post infection and continued daily for 4 days into fresh changed media until day 8 assessed as Liver stage (LS) activity by measuring prophylactic mode by immunofluorescent staining analysis
Format: toxicity, cell-based
CONDITION_DETAILS: rhesus monkey, read-out: Selectivity Index
TEST_READOUT: selectivity ratio at 96 h
One number for each entry.

Q: Quick one: give measured selectivity ratio at 96 h for O=c1c2ccc(Oc3ccc(OC(F)(F)F)cc3)cc2[nH]c2ccc(Cl)c(F)c12
Ans: 11.4

Q: Quick one: give measured selectivity ratio at 96 h for COc1ccc(Oc2ccc3c(=O)c4c(F)cc(Cl)cc4[nH]c3c2)cc1
Ans: 2.4

Q: Quick one: give measured selectivity ratio at 96 h for CC(C)(C)OC(=O)N1CCC(Oc2ccc3c(=O)c4c(Cl)cc(F)cc4[nH]c3c2)CC1
Ans: 3.45

Q: Quick one: give measured selectivity ratio at 96 h for O=c1c2ccc(OCc3ccc(C(F)(F)F)cc3)cc2[nH]c2cc(Cl)cc(F)c12
Ans: 3.33

Q: Quick one: give measured selectivity ratio at 96 h for O=c1c2c([nH]c3cc(Oc4cccc(OC(F)(F)F)c4)ccc13)CCCC2
Ans: 2.18

For every record below, what is its selectivity ratio at 96 h?
1. O=c1c2cc(F)c(Oc3ccc(OC(F)(F)F)cc3)cc2[nH]c2cc(Cl)cc(F)c12
2. O=c1c2ccc(Oc3ccccc3OC(F)(F)F)cc2[nH]c2cc(Cl)cc(F)c12
3. COc1cc(C)c2c(Oc3cccc(C(F)(F)F)c3)c(OC)cc(NC(C)CCCN)c2n1 (stereo not given)
4. O=c1c2c([nH]c3cccc(Oc4ccc(OC(F)(F)F)cc4)c13)CCCC2
5. O=c1c2c([nH]c3cc(Nc4ccc(OC(F)(F)F)cc4)ccc13)CCCC2

Ans:
1: 3.62; 2: 6.72; 3: 89.4; 4: 0.787; 5: 1.66

====

TEST_NAME: Half life in male ICR-CD1 mouse plasma at 40 mg/kg, po
Assay type: ADME, organism-based
TEST_READOUT: half-life (h)
Give bare numbers, in h.

Q: Quick one: give measured half-life for O=c1c2c([nH]c3cc(Oc4ccc(OC(F)(F)F)cc4)c(F)cc13)CCCC2
Ans: 3.89

====

TEST_NAME: MRTlast in male ICR-CD1 mouse plasma at 40 mg/kg, po
Type: ADME, organism-based
TEST_READOUT: MRT last
Respond with a number, then the unit of measure.

Q: Quick one: give measured MRT last for O=c1c2c([nH]c3cc(Oc4ccc(OC(F)(F)F)cc4)c(F)cc13)CCCC2
Ans: 2.95 h

Now turn to the next compound.
Q: Quick one: give measured MRT last for O=c1c2c([nH]c3cc(Oc4ccc(OC(F)(F)F)cc4)ccc13)CCCC2
Ans: 4.1 h

====

System: Plasmodium falciparum
TEST_NAME: Antiplasmodial activity against asexual blood-stage (ABS) ATV-resistant clinical isolate Plasmodium falciparum Tm90-C2B infected in human erythrocytes assessed as reduction in fluorescence measured after 72 hrs by Malaria SYBR Green I-based Fluorescence (MSF) assay
Assay type: functional, organism-based
CONDITION_DETAILS: Erythrocyte
What pIC50 was measured for each of the following?
One number for each entry, as −log10 of the molar value.

Consider the following illustrative entries.
Q: Quick one: give measured pIC50 for O=c1c2c([nH]c3cc(Oc4ccc(OC(F)(F)F)cc4)ccc13)CCCC2
Ans: 9.53

Q: Quick one: give measured pIC50 for O=c1c2c([nH]c3c(Oc4ccc(OC(F)(F)F)cc4)cccc13)CCCC2
Ans: 6.66

Q: Quick one: give measured pIC50 for O=c1c2ccc(Oc3ccc(OC(F)(F)F)cc3)cc2[nH]c2cc(F)c(Cl)cc12
Ans: 7.32

Q: Quick one: give measured pIC50 for CC(C)(C)OC(=O)N1CCC(Oc2ccc3c(=O)c4c(F)cc(Cl)cc4[nH]c3c2)C1 (stereo unspecified)
Ans: 6.95

Q: Quick one: give measured pIC50 for CCCCCCOc1ccc2c(=O)c3c([nH]c2c1)CCCC3
Ans: 8.29

Q: Quick one: give measured pIC50 for O=c1c2c([nH]c3cc(Nc4ccc(OC(F)(F)F)cc4)ccc13)CCCC2
Ans: 8.55

Q: Quick one: give measured pIC50 for CCCN(CCC)CCOc1ccc2c(=O)c3c([nH]c2c1)CCCC3
Ans: 7.34

Q: Quick one: give measured pIC50 for CCCN(CCC)CCCOc1ccc2c(=O)c3c([nH]c2c1)CCCC3
Ans: 6.79

For every record below, what is its pIC50?
1. O=c1c2c([nH]c3cc(OC(F)(F)F)ccc13)CCCC2
2. O=c1c2ccc(OCc3cccc(OC(F)(F)F)c3)cc2[nH]c2cc(Cl)cc(F)c12
3. O=c1c2c([nH]c3cc(Oc4ccc(OC(F)(F)F)cc4)c(F)cc13)CCCC2
4. O=c1c2ccc(Oc3ccccc3OC(F)(F)F)cc2[nH]c2cc(Cl)cc(F)c12
5. O=c1c2ccccc2[nH]c2cc(Oc3ccc(OC(F)(F)F)cc3)ccc12
6. CCCCN(CCCC)CCCOc1ccc2c(=O)c3c([nH]c2c1)CCCC3

Ans:
7.23
9.01
9.42
7.54
8.48
7.22

For every record below, what is its pIC50?
1. O=c1c2ccc(OCc3cccc(C(F)(F)F)c3)cc2[nH]c2ccc(Cl)c(F)c12
2. O=c1c2cc(F)c(Oc3ccc(OC(F)(F)F)cc3)cc2[nH]c2cc(Cl)cc(F)c12
3. O=c1c2c([nH]c3ccc(Oc4ccc(OC(F)(F)F)cc4)cc13)CCCC2
4. O=c1c2cc(Oc3ccc(OC(F)(F)F)cc3)ccc2[nH]c2cc(Cl)cc(F)c12
5. O=c1c2c([nH]c3cc(OCc4ccc(OC(F)(F)F)cc4)ccc13)CCCC2
6. O=c1c2ccc(Oc3cccc(OC(F)(F)F)c3)cc2[nH]c2cc(F)c(Cl)cc12
7. O=c1c2ccc(Oc3ccc(OC(F)(F)F)cc3)cc2[nH]c2ccc(Cl)c(F)c12
8. O=c1c2ccc(OCc3ccc(C(F)(F)F)cc3)cc2[nH]c2cc(Cl)cc(F)c12

Ans:
[6.93, 9.32, 7.52, 6.22, 7.36, 7.21, 6.56, 7.46]

For every record below, what is its pIC50?
1. O=c1c2c([nH]c3cc(Oc4cccc(OC(F)(F)F)c4)ccc13)CCCC2
2. O=c1c2ccc(Oc3cccc(C(F)(F)F)c3)cc2[nH]c2cc(F)c(Cl)cc12
3. O=c1c2ccc(OCc3ccc(OC(F)(F)F)cc3)cc2[nH]c2cc(Cl)cc(F)c12

Ans:
1. 8.36
2. 7.23
3. 7.52

For every record below, what is its pIC50?
1. COc1ccc(Oc2ccc3c(=O)c4c(F)cc(Cl)cc4[nH]c3c2)cc1
2. O=c1c2c([nH]c3cc(Oc4ccccc4OC(F)(F)F)ccc13)CCCC2
3. O=c1c2ccc(OCc3cccc(OC(F)(F)F)c3)cc2[nH]c2ccc(Cl)c(F)c12
4. O=c1c2ccc(Oc3ccc(OC(F)(F)F)cc3)cc2[nH]c2ccc(F)c(Cl)c12

Ans:
7.74
9.56
6.74
7.28
